Provenance of the data: PubChem BioAssay AID2060906

# Test system: 485176-168-R4-J1-PDC complex spheroid growth;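 further: spheroids exposed to compounds for seven days before readout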
# Protocol description: Anticancer human tumor 485176-168-R4-J1-PDC patient-derived pancreatic adenocarcinoma cell line growth inhibition [RAS]
# Test parameters: second compound 0.03 µM; first compound 0.316 µM; active compounds read low
Quick rule for you: viability, T/C under 90% gets Fulfilled, anything else gets Not fulfilled.

Worked set:
* NC1c2ccccc2OC12CCN(c1cnc3c(N4CCCc5ncccc54)n[nH]c3n1)CC2 (stereo unspecified) + CCn1c(-c2cc(N3CCN(C)CC3)cnc2C(C)OC)c2c3cc(ccc31)-c1csc(n1)CC(NC(=O)C1CC1C)C(=O)N1CCCC(N1)C(=O)OCC(C)(C)C2 | Fulfilled
* CC(C)NCC(C(=O)N1CCN(c2ncnc3c2C(C)CC3O)CC1)c1ccc(Cl)cc1 (stereo unspecified) + CCn1c(-c2cc(N3CCN(C)CC3)cnc2C(C)OC)c2c3cc(ccc31)-c1csc(n1)CC(NC(=O)C1CC1C)C(=O)N1CCCC(N1)C(=O)OCC(C)(C)C2 | Fulfilled
* O=C(c1ccc(F)c(F)c1Nc1ccc(I)cc1F)N1CC(O)([C@@H]2CCCCN2)C1 + CCn1c(-c2cccnc2C(C)OC)c2c3cc(ccc31)N1CCOC(CC(NC(=O)C(C(C)C)N(C)C(=O)C3(F)CCN(C(=O)C#CC(C)(C)N(C)C)CC3)C(=O)N3CCCC(N3)C(=O)OCC(C)(C)C2)C1 | Fulfilled
* CC1(O)CCCC1n1c(=O)c(C(F)F)cc2cnc(NC3CCN(S(C)(=O)=O)CC3)nc21 (stereo unspecified) + CCn1c(-c2cc(N3CCN(C)CC3)cnc2C(C)OC)c2c3cc(ccc31)-c1csc(n1)CC(NC(=O)C1CC1C)C(=O)N1CCCC(N1)C(=O)OCC(C)(C)C2 | Fulfilled
* CCN1CCN(Cc2ccc(Nc3ncc(F)c(-c4cc(F)c5nc(C)n(C(C)C)c5c4)n3)nc2)CC1 + CCn1c(-c2cccnc2C(C)OC)c2c3cc(ccc31)N1CCOC(CC(NC(=O)C(C(C)C)N(C)C(=O)C3(F)CCN(C(=O)C#CC(C)(C)N(C)C)CC3)C(=O)N3CCCC(N3)C(=O)OCC(C)(C)C2)C1 | Fulfilled
* O=C(c1ccc(F)c(F)c1Nc1ccc(I)cc1F)N1CC(O)([C@@H]2CCCCN2)C1 + CCn1c(-c2cc(N3CCN(C)CC3)cnc2C(C)OC)c2c3cc(ccc31)-c1csc(n1)CC(NC(=O)C1CC1C)C(=O)N1CCCC(N1)C(=O)OCC(C)(C)C2 | Fulfilled
* Cc1nc(N2CCC3(CC2)COC(C)C3N)c(CO)nc1Sc1ccnc(N)c1Cl (stereo unspecified) + CCn1c(-c2cc(N3CCN(C)CC3)cnc2C(C)OC)c2c3cc(ccc31)-c1csc(n1)CC(NC(=O)C1CC1C)C(=O)N1CCCC(N1)C(=O)OCC(C)(C)C2 | Not fulfilled
* CCC(CC)c1cc(NC2CCC(N)C2)n2nccc2n1 (stereo unspecified) + CCn1c(-c2cc(N3CCN(C)CC3)cnc2C(C)OC)c2c3cc(ccc31)-c1csc(n1)CC(NC(=O)C1CC1C)C(=O)N1CCCC(N1)C(=O)OCC(C)(C)C2 | Fulfilled
* Nc1ccn(C2OC(CO)C(O)C2(F)F)c(=O)n1 (stereo unspecified) + CCn1c(-c2cc(N3CCN(C)CC3)cnc2C(C)OC)c2c3cc(ccc31)-c1csc(n1)CC(NC(=O)C1CC1C)C(=O)N1CCCC(N1)C(=O)OCC(C)(C)C2 | Fulfilled
* CC1(O)CCCC1n1c(=O)c(C(F)F)cc2cnc(NC3CCN(S(C)(=O)=O)CC3)nc21 (stereo unspecified) + CCn1c(-c2cccnc2C(C)OC)c2c3cc(ccc31)N1CCOC(CC(NC(=O)C(C(C)C)N(C)C(=O)C3(F)CCN(C(=O)C#CC(C)(C)N(C)C)CC3)C(=O)N3CCCC(N3)C(=O)OCC(C)(C)C2)C1 | Fulfilled

Dear colleague, could you confirm whether viability, T/C of CC(Nc1ccc2c(c1)OCCn1cc(N3C(=O)OCC3C(F)F)nc1-2)C(N)=O (stereo unspecified) + CCn1c(-c2cc(N3CCN(C)CC3)cnc2C(C)OC)c2c3cc(ccc31)-c1csc(n1)CC(NC(=O)C1CC1C)C(=O)N1CCCC(N1)C(=O)OCC(C)(C)C2 falls below 90%? Thanks.
Fulfilled

Dear colleague, could you confirm whether viability, T/C of CCC(CC)c1cc(NC2CCC(N)C2)n2nccc2n1 (stereo unspecified) + CCn1c(-c2cccnc2C(C)OC)c2c3cc(ccc31)N1CCOC(CC(NC(=O)C(C(C)C)N(C)C(=O)C3(F)CCN(C(=O)C#CC(C)(C)N(C)C)CC3)C(=O)N3CCCC(N3)C(=O)OCC(C)(C)C2)C1 falls below 90%? Thanks.
Not fulfilled

Dear colleague, could you confirm whether viability, T/C of NC1c2ccccc2OC12CCN(c1cnc3c(N4CCCc5ncccc54)n[nH]c3n1)CC2 (stereo unspecified) + CCn1c(-c2cccnc2C(C)OC)c2c3cc(ccc31)N1CCOC(CC(NC(=O)C(C(C)C)N(C)C(=O)C3(F)CCN(C(=O)C#CC(C)(C)N(C)C)CC3)C(=O)N3CCCC(N3)C(=O)OCC(C)(C)C2)C1 falls below 90%? Thanks.
Fulfilled
